Target: T1, human PD-1 extracellular domain fused with human Fc tag (hPD-1-hFc) (human)
T1 construct: also called human PD-1-hFc
T1 sequence (chain, as listed by the source limits assumed): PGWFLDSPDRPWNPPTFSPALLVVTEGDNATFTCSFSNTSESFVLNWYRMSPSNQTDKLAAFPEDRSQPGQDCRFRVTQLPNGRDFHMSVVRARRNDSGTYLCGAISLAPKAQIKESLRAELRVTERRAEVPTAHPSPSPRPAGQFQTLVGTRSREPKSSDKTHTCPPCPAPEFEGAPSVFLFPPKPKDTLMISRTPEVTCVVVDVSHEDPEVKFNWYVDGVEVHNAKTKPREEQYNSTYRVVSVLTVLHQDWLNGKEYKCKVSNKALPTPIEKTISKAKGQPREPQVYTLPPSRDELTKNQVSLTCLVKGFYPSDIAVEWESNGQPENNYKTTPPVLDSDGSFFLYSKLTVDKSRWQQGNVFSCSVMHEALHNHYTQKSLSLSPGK
Assay: ELISA on coated PD1-hFc
Protocol: ELISA binding analysis was conducted based on human PD-1-hFc Protein. 96-well plates (Costar, Cat No:9018) were coated with 100 μL of 2 μg/ml PD1-hFc (CrownBio) in coating buffer (PBS, Hyclone, Cat No:SH30256.01B) overnight at 4° C. […] The colorimetric signals were developed and read at 450 nm using a Auto Plate SpectraMax Plus (Supplier: Molecular Devices; Model: MNR0643; Software: SoftMax Pro v5.4). […]
metric: EC50 (µg/mL)
Your answer should be a plain number; it is taken to be in µg/mL.

{"binder": "chimeric 10D1-hIgG4 (antibody, V domains shown, Mouse variable regions with human IgG4 constant region) VH: EVKLVESGGGLVKPGGSLKLSCAASGFTFSSYGMSWLRQTPEKRLEWVATMSGGGRDIYYPDSMKGRFTISRDNAKNNLYLQMSSLRSEDTALYYCARQYYDDWFAYWGQGTLVTVSA VL: DIVLTQTPATLSVTPGDSVSLSCRASQSISNNLHWYQQKSHESPRLLIKYASQSISGIPSRFSGSGSGTDFTLNINSVETEDFGMYFCQQSNSWPLTFGAGTKLELKR", "numeric-value": 0.0588}
{"binder": "chimeric 7D3-hIgG4 (antibody, V domains shown, Mouse variable regions with human IgG4 constant region) VH: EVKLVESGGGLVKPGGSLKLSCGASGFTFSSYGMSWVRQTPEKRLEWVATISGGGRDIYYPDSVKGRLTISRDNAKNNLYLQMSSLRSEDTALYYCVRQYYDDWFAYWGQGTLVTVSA VL: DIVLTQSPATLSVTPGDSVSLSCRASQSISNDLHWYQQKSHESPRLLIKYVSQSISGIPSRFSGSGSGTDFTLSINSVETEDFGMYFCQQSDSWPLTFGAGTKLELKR", "numeric-value": 0.0517}

// next item, EC50 requested
QUERY: # EC50 lookup, item chimeric 13F1-hIgG4 (antibody, V domains shown, Full chimeric chains; also called 13F1-chimeric) VH: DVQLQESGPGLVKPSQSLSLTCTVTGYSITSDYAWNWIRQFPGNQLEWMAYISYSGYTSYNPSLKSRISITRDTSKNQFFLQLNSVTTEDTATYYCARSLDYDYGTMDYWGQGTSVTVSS VL: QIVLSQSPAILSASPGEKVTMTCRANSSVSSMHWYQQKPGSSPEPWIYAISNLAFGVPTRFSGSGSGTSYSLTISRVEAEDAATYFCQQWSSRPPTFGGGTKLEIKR
RESULT: 0.0587
